Measured values drawn from patent EP1421935A1 for this set.

Consider the following compounds; for each one, report its kin x 10^3 (hr^-1) No epithelium.
experimentDescription: transcorneal penetration of drugs (in vitro corneal permeability)
runParameters: rate constant of transfer across excised rabbit cornea, denuded epithelium, pH 7.4
Write down the numeric answer in hr^-1 and omit the unit.

Dear colleague, I am looking for the recorded kin x 10^3 (hr^-1) No epithelium of the following compound: CC(=O)/N=c1/sc(S(N)(=O)=O)nn1C [Methazolamide, methazolamide, reference compound]
13

Would you kindly repeat that for NS(=O)(=O)c1ccc(CNC(=S)NC(CO)C(=O)O)cc1 (centres unmarked) [B19] ?
8.5

Would you kindly repeat that for NS(=O)(=O)c1ccc(CNC(=S)NCCC(=O)NC(Cc2cnc[nH]2)C(=O)O)cc1 (centres unmarked) [B40] ?
5.9

Would you kindly repeat that for CC(=O)Nc1nnc(S(N)(=O)=O)s1 [Acetazolamide, acetazolamide, reference compound] ?
7.0

Would you kindly repeat that for NS(=O)(=O)c1ccc(CNC(=S)Nc2ccc(C(=O)O)cc2)cc1 [B13] ?
9.1

Would you kindly repeat that for NS(=O)(=O)c1ccc(CNC(=S)NC(C(=O)O)C(O)c2ccccc2)cc1 (centres unmarked) [B20] ?
10.7

Would you kindly repeat that for CCN[C@H]1C[C@H](C)S(=O)(=O)c2sc(S(N)(=O)=O)cc21 [Dorzolamide, dorzolamide, reference compound] ?
5.2

Would you kindly repeat that for NS(=O)(=O)c1ccc(CNC(=S)NC(CS)C(=O)O)cc1 (centres unmarked) [B22] ?
0.9

Would you kindly repeat that for NS(=O)(=O)c1ccc(CNC(=S)Nc2ccccc2C(=O)O)cc1 [B11] ?
8.3

Would you kindly repeat that for NS(=O)(=O)c1ccc(CNC(=S)Nc2cccc(C(=O)O)c2)cc1 [B12] ?
8.7

Would you kindly repeat that for NS(=O)(=O)c1ccc(CNC(=S)NC(C(=O)O)c2ccccc2)cc1 (centres unmarked) [B18] ?
12.0
